Taken from patent US6380387B1.

TEST TARGET: VLA-4 (α4β1 integrin) (Homo sapiens, UniProt P05556+P13612)
Construct: Ramos cells bearing cell-surface VLA-4; endogenous in cells; host or cells: Ramos cells
Sequence (P13612 34-1032): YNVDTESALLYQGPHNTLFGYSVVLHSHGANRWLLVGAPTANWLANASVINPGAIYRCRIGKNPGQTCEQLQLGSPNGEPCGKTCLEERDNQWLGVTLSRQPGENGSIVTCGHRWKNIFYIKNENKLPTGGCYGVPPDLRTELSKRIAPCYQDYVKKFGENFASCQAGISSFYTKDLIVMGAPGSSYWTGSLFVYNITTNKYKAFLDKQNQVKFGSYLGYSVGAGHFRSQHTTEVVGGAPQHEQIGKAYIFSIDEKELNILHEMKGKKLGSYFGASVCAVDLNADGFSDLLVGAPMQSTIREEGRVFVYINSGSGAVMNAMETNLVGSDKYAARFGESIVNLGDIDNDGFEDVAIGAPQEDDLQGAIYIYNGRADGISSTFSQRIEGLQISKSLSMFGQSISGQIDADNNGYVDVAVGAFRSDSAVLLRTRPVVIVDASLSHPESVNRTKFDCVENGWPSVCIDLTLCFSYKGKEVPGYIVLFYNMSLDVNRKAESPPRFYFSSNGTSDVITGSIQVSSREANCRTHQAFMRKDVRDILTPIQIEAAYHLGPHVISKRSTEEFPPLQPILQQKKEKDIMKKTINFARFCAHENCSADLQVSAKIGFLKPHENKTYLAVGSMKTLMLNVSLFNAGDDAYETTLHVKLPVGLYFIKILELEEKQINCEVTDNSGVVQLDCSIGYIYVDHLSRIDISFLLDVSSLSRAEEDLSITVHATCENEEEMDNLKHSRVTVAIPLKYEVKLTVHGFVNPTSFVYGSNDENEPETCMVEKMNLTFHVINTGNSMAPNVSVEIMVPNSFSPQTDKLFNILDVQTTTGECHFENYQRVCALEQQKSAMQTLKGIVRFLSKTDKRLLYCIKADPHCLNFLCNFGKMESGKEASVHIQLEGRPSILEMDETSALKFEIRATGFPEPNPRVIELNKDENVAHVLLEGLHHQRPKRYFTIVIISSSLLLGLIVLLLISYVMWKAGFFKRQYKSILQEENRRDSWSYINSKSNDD
Sequence (P05556 21-798): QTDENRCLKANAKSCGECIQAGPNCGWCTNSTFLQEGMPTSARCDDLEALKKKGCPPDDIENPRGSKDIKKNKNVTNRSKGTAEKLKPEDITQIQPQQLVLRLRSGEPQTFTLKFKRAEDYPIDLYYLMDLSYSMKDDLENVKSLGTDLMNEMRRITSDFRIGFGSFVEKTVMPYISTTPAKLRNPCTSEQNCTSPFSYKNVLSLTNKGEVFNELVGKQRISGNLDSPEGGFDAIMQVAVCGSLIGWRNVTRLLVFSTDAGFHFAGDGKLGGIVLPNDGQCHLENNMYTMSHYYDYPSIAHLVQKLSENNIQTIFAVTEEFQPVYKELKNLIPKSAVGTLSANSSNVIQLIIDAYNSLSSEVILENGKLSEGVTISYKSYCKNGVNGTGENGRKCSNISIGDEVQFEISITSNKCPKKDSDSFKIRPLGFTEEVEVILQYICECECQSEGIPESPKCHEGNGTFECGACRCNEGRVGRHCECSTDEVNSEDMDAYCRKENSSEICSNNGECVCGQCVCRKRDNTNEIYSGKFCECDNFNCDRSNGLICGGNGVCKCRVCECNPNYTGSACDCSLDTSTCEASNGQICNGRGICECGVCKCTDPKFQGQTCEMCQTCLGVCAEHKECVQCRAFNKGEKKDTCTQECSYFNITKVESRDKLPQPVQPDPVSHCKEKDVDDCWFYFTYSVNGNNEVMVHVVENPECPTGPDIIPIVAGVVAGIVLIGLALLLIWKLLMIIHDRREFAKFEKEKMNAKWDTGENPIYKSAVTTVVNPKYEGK
MEASUREMENT DESCRIPTION: Ramos (VLA-4)/VCAM-1 Cell-Based Screening Assay (cell adhesion)
DETAILS: Calcein-AM labeled Ramos cells adhering to immobilized recombinant human VCAM-1
OBSERVED PROPERTY: IC50

Data request: Given the molecule `Cc1cc(C[C@H](NC(=O)c2c(Cl)cccc2Cl)C(=O)O)ccc1-c1cn(C)c(=O)n(C)c1=O` , what is its reported IC50?
Data returned: < 100 nM

Data request: Then `Cc1cccc(Cl)c1C(=O)N[C@@H](Cc1ccc(-c2c(C)n(C)c(=O)n(C)c2=O)cc1)C(=O)OCCN1CCOCC1` ?
Data returned: < 10000 nM

Data request: Then `Cn1c(C(F)(F)F)c(-c2ccc(C[C@H](NC(=O)c3c(F)cccc3C(F)(F)F)C(=O)O)cc2)c(=O)n(C)c1=O` ?
Data returned: < 100 nM

Data request: Then `Cc1c(-c2ccc(C[C@H](NC(=O)[C@@H]3CCCN3)C(=O)O)cc2)c(=O)n(C)c(=O)n1C` ?
Data returned: < 100 nM

Data request: Then `CCn1c(C)c(-c2ccc(C[C@H](NC(=O)c3c(C)cccc3Cl)C(=O)O)cc2)c(=O)n(CC)c1=O` ?
Data returned: < 100 nM
